Biological target: human CD3 expressed on cells (Jurkat cells; human T-cells of PBMC) (human, UniProt P09693 23-182; P20963 22-164)
Sequence (chain, as listed by the source, chain 1 of 4): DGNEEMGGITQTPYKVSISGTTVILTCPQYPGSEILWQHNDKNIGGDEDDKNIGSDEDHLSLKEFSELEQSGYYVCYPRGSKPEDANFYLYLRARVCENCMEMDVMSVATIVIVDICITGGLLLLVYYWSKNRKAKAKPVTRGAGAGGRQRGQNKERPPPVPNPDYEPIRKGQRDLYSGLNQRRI
Sequence (chain, as listed by the source, chain 2 of 4): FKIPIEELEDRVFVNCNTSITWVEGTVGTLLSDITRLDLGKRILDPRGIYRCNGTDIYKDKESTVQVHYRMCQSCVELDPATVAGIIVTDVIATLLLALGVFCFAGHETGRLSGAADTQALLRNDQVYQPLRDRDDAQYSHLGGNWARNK
Sequence (P09693 23-182, chain 3 of 4): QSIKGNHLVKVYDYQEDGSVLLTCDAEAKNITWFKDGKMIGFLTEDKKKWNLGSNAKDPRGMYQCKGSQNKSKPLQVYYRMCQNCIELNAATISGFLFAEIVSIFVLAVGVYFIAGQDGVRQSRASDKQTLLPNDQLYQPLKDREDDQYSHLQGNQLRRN
Sequence (P20963 22-164, chain 4 of 4): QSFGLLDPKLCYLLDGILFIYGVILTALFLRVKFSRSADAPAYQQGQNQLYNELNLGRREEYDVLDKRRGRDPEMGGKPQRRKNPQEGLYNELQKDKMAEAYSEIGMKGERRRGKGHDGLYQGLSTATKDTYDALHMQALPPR
Test: cell-based or functional assay
quantity_measured: U937 Cytotoxicity Human T-cells (pM)
Provide only the numeric value, understood in pM.

Inquiry: May I ask what U937 Cytotoxicity Human T-cells has been recorded for H2M2705N (antibody, mouse IgG2, V domains shown) VH: QVQLVESGGGVVQPGRSLRLACVASGFTFRSYGMHWVRQAPGKGLQWVAMIYYDGKNKYYADSVRGRFTISRDNSKNTLYLQMNNLRVEDTAMYFCARGPGYNWLDPWGQGTLVTVSS VL: EIVMTQSPATLSVSPGERATLSCRASQRISSNLAWYQQKPGQAPRLLIYGASTRATGSPARFSGSGSGTDFTLTISSLQSEDVAVYYCQQHHNWPLTFGGGTKVEIK ?
Reply text: 1.73

Inquiry: May I ask what U937 Cytotoxicity Human T-cells has been recorded for H2M2707N (antibody, mouse IgG2, V domains shown) VH: QVQLVESGGGVVQPGRSLRLSCIASGFTFRSYGMHWVRQAPGKGLEWVAMIYYDGNNKYYADSVRGRFTISRDNSKNTLYLQMNSLRADDTAVYFCARGPGYNWLDPWGQGTLVTVSS VL: EIVMTQSPATLSVSPGERATLSCRASQSVSSNLAWYQQKPGQAPRLLIYGASTRATGIPARFSGSGSGTEFTLTISSLQSEDFAVYYCQQYNNRPLTFGGGTKVEIK ?
Reply text: 7.21

Inquiry: May I ask what U937 Cytotoxicity Human T-cells has been recorded for H2M3563N (antibody, mouse IgG2, V domains shown, H2M: human variable regions, mouse IgG2 Fc) VH: EVHLVESGGGLVQPGRSLRLSCAASGFTFDDYTMHWVRQAPGKGLEWVSDISWNSGSIGYADSVKGRFTVSRDNAKNSLYLQMNSLRGEDTALYYCAKDMSGYGHYGKYGMDVWGQGTTVTVSS VL: DIQMTQSPSSLSASVGDRVTITCRASQSIRSYLNWYQQKPGKVPKLLIYAASSLQSGVPSRFSGSGSGTDFTLTINSLQPDDFATYYCQQTYSNPPITFGQGTRLEIK ?
Reply text: 40.5

Inquiry: May I ask what U937 Cytotoxicity Human T-cells has been recorded for H2M2777N (antibody, mouse IgG2, V domains shown) VH: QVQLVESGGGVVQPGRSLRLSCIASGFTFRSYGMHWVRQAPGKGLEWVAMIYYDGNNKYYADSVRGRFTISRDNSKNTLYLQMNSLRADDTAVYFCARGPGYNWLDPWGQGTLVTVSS VL: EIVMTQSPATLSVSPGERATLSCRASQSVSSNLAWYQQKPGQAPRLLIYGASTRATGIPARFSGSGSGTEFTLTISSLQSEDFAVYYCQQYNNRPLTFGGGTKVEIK ?
Reply text: 4.86

Inquiry: May I ask what U937 Cytotoxicity Human T-cells has been recorded for H2M2778N (antibody, mouse IgG2, V domains shown) VH: EVQLVESGGGLVQPGRSLRLSCAASGFTFDDYSMHWVRQAPGKGLEWVSGISWNSRSIDYADSVKGRFTISRDNAKNSLYLQMNSLRAEDTALYYCVKDNSGYGRYYYYGMDVWGQGTTVSVSS VL: KIVMTQSPATLSVSPGERATLSCRASQSVSGNLAWYQQKPGQAPRLLIYGASTRATSIPARFSGSGSGTEFTLTISSLQSEDFAVYFCQHYYNWPLTFGGGTKVEIR ?
Reply text: 0
